Target: human BRD4 bromodomain II (Homo sapiens)
Construct: human BRD4 bromodomain II [based on Genbank NM_058243, residues 349-460]; host or cells: E. coli
Assay: Bromodomain binding assay (AlphaScreen), BRD4 BDII
Conditions: AlphaScreen assay, Table C2; read-out: BRD4 BDII IC50
pIC50: −log10 of the molar value. Counter-ions that a name gives are not always drawn.
Can you tell me pIC50 for the items I'm about to list?

Completed entries (count: 6):
CC(=O)Nc1ccc(-c2cccc(-c3cc(N4CCNCC4)no3)c2O)cc1C [Example 21, hydrochloride] = < 7.00
Cn1ccn(-c2ccc(-c3cc(F)cc(-c4ccnc(C5CCCNC5)c4)c3O)cc2Cl)c1=O (centres unmarked) = 9.00 to 11.00
CC(=O)Nc1ccc(-c2cccc(-c3cccnc3)c2O)cc1F = 7.00 to 8.00
CC(=O)Nc1c(Cl)cc(-c2cccc(-c3cc(N4CCNCC4)no3)c2O)cc1Cl = 7.00 to 8.00
CN[C@H]1CCCN(c2cncc(-c3cc(F)cc(-c4ccc(-n5ccn(C)c5=O)c(Cl)c4)c3O)c2)C1 = 9.00 to 11.00
CC(=O)Nc1ccc(-c2cccc(-c3cc(N)nc(N4CCNCC4)c3)c2O)cc1F = 8.00 to 9.00

Respectfully, I request pIC50 for each entry included below.
1. Cn1ccn(-c2ccc(-c3cc(F)cc(-c4ccnc(N5CCCC6(CCCN6)C5)c4)c3O)cc2Cl)c1=O (centres unmarked)
2. Cn1ccn(-c2ccc(-c3cc(F)cc(-c4cc(F)cc(N5CCNCC5)c4)c3O)cc2Cl)c1=O
3. COC(=O)c1cc(-c2cccc(-c3ccc(NC(C)=O)c(F)c3)c2O)cc(N2CCNCC2)n1
4. O=C1OCCN1c1ccc(-c2cc(F)cc(-c3ccnc(N4CCNCC4)c3)c2O)cc1Cl
5. CC(=O)NC1(c2cccc(-c3cc(F)cc(-c4ccc(-n5ccn(C)c5=O)c(Cl)c4)c3O)c2)CC1
6. CN1CCN(c2c(Cl)cc(-c3cc(F)cc(-c4ccnc(N5CCNCC5)c4)c3O)cc2Cl)C1=O
7. [2H]C([2H])([2H])n1ccn(-c2ccc(-c3cc(F)cc(-c4ccnc(N5CC[C@H](N)C5)c4)c3O)cc2Cl)c1=O
8. Cn1ccn(-c2ccc(-c3cc(F)cc(-c4ccnc(N5CCCC(C)(N)C5)c4)c3O)cc2Cl)c1=O (centres unmarked)

Solution:
["8.00 to 9.00", "9.00 to 11.00", "< 7.00", "7.00 to 8.00", "8.00 to 9.00", "< 7.00", "9.00 to 11.00", "9.00 to 11.00"]

Respectfully, I request pIC50 for each entry included below.
1. CC(=O)Nc1ccc(-c2cccc(-c3ccnc(N4CC(C)NC(C)C4)c3)c2O)cc1F (centres unmarked)
2. Cn1ccn(-c2ccc(-c3cc(F)cc(-c4ccnc(N5CCC(C)(O)CC5)c4)c3O)cc2Cl)c1=O
3. CC(=O)Nc1ccc(-c2cccc(-c3ccc(N4CCNCC4)cc3)c2O)cc1F

Solution:
["8.00 to 9.00", "8.00 to 9.00", "< 7.00"]

Respectfully, I request pIC50 for each entry included below.
1. CN1CCN(c2ccc(-c3cccc(-c4ccc(CN)c(N5CCNCC5)c4)c3O)cc2Cl)C1=O
2. CC(=O)Nc1ccc(-c2cccc(-c3cc(OC4CC4)nc(N4CCNCC4)c3)c2O)cc1F
3. Cn1ccn(-c2ccc(-c3cc(F)cc(-c4ccnc(N5CC6CNC(C6)C5)c4)c3O)cc2Cl)c1=O (centres unmarked)

Solution:
1: 8.00 to 9.00; 2: 7.00 to 8.00; 3: 8.00 to 9.00
